Cited source for all entries: patent US20250042994A1

# ASSAY_TARGET: T1, cynomolgus monkey CD19 on peripheral blood B cells (cynomolgus monkey (Macaca fascicularis), UniProt A0A2K5W8L9 20-557)
# T1 construct: whole, on cells; also called cynomolgus monkey B cells
# T1 sequence: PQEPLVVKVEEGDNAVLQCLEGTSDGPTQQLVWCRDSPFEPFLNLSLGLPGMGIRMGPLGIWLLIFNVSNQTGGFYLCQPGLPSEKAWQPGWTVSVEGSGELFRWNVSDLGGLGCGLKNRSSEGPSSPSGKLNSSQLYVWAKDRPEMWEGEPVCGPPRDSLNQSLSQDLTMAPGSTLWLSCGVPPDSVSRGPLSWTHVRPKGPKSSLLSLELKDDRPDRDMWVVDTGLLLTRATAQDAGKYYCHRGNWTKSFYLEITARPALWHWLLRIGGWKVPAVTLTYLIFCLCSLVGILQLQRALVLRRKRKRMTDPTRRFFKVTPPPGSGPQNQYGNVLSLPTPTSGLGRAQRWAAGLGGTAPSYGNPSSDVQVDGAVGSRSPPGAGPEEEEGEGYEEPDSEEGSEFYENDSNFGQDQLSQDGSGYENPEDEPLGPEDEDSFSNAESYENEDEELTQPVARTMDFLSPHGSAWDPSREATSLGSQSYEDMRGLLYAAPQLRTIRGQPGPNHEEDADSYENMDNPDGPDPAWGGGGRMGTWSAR
# MEASUREMENT_PROTOCOL: FACS, cynomolgus PBMC, CD20+ B cells
MEASUREMENT_KIND: Proportion of chimeric antibody positive cells to B cells (%) at 10 nM

| BINDER | VALUE_REPORTED |
| --- | --- |
| F4.41.1 (antibody, human IgG1, V domains shown, human-murine chimeric antibody, human IgG1) VH: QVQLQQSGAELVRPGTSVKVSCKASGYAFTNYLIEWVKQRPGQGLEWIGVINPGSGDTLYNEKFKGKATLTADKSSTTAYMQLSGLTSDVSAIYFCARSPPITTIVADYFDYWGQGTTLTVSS VL: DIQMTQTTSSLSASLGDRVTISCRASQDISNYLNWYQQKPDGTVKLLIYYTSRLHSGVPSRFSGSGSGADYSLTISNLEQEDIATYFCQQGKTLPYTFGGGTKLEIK | 2 |
| F4.107.12 (antibody, human IgG1, V domains shown, human-murine chimeric antibody, human IgG1) VH: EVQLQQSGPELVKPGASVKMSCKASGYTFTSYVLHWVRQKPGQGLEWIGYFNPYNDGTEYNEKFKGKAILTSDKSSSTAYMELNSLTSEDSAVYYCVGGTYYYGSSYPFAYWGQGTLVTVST VL: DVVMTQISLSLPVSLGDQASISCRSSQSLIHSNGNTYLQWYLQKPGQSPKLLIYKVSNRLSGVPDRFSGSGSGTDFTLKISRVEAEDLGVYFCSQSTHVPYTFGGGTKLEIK | 35 |
| F4.35.5 (antibody, human IgG1, V domains shown, human-murine chimeric antibody, human IgG1) VH: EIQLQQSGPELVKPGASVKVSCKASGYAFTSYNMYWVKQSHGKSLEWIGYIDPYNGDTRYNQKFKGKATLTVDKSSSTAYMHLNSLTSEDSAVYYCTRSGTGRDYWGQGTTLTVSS VL: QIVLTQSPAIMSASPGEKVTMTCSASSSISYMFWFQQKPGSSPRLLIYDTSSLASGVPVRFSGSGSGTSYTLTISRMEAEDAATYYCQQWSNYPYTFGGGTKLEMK | 2 |
| F4.18.13 (antibody, human IgG1, V domains shown, human-murine chimeric antibody, human IgG1) VH: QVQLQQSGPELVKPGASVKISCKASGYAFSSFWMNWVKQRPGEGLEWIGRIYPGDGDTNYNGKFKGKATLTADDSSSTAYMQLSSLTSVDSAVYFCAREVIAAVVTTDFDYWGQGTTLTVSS VL: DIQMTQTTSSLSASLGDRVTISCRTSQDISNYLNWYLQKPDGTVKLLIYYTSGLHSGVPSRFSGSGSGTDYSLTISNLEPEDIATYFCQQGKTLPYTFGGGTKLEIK | 8 |
| F3.124.7 (antibody, human IgG1, V domains shown, human-murine chimeric antibody, human IgG1) VH: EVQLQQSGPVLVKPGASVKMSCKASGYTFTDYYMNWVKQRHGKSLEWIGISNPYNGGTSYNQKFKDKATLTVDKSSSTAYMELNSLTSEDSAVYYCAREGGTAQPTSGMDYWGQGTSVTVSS VL: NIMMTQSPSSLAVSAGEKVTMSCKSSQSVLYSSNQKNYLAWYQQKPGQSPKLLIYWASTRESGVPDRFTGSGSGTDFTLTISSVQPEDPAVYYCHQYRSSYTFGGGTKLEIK | 65 |
| F4.78.1 (antibody, human IgG1, V domains shown, human-murine chimeric antibody, human IgG1) VH: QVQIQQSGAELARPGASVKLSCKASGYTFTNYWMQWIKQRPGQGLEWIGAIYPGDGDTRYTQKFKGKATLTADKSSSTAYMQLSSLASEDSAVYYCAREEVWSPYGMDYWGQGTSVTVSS VL: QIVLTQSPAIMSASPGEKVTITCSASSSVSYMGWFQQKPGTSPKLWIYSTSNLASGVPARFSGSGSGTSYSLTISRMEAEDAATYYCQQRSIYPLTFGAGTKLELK | 29 |
| F3.83.9 (antibody, human IgG1, V domains shown, human-murine chimeric antibody, human IgG1) VH: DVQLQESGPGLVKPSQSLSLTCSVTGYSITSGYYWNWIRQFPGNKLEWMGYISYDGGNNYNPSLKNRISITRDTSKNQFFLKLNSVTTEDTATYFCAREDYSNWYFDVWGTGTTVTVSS VL: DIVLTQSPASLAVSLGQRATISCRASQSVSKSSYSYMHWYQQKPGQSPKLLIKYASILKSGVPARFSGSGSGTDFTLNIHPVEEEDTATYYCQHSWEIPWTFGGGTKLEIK | 97 |
| F3.81.2 (antibody, human IgG1, V domains shown, human-murine chimeric antibody, human IgG1) VH: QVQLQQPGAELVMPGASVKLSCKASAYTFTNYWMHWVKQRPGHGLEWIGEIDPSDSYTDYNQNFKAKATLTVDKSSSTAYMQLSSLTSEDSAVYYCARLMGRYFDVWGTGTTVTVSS VL: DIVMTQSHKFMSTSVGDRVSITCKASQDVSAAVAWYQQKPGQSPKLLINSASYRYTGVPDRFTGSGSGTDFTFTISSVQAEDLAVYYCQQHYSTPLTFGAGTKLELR | 16 |
| F5.3.6 (antibody, human IgG1, V domains shown, human-murine chimeric antibody, human IgG1) VH: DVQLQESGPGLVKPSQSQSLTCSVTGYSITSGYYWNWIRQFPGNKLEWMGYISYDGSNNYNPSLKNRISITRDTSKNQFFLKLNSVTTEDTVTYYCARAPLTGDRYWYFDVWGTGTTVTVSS VL: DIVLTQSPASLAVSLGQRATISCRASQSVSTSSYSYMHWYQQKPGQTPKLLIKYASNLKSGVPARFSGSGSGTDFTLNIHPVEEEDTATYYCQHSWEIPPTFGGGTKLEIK | 7 |
| F4.22.6 (antibody, human IgG1, V domains shown, human-murine chimeric antibody, human IgG1) VH: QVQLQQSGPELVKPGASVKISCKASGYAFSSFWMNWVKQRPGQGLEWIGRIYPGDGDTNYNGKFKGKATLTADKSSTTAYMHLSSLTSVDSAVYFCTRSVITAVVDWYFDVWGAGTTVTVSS VL: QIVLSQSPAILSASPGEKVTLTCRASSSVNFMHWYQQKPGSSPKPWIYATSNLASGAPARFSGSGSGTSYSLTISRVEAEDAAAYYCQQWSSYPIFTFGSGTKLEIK | 2 |
